Hello, the source for this data is PubChem BioAssay AID686976, in case you need it.

Below, each entry is listed with its recorded inhibition.
- Tested on: CCHF virus ovarian tumor domain protease (vOTU, L protein)
- experimentNotes: CCHFV vOTU protease inhibitors, confirmation, biochemical, Pep-AMC substrate, fluorescence (AID 686976)
- protocolConditions: Recombinant CCHFV vOTU, at 11.5 µM, active compounds read high
Among all 1,900 compounds or so, about 320 (17%) were called active. The list is a sample of the results.
experimentalEndpoint: inhibition

>>> valueobserved("COc1cc2c(cc1OC)C(Cc1cc(OC)c(OC)cc1[N+](=O)[O-])=NCC2")
"-18.3% (inactive)"
>>> valueobserved("CCOC(=O)N1CCC(c2cc(=O)n(-c3ccccc3)[nH]2)CC1")
"-6.72% (inactive)"
>>> valueobserved("Cc1ccccc1-n1c(SCC(=O)Nc2cccc3ccccc23)nc(O)cc1=O")
"-11.1% (inactive)"
>>> valueobserved("CC1CCCCC12NC(=O)N(CC(=O)OCC(=O)NCc1ccc(F)cc1)C2=O (stereo not given)")
"-0.61% (inactive)"
>>> valueobserved("CCN(CC(=O)Nc1c(F)cccc1F)C(=O)c1cnc(C)cn1")
"2.27% (inactive)"
>>> valueobserved("Cc1ccc(OCc2nnc(SC/C=C/c3ccccc3)n2Cc2ccco2)cc1")
"15.3% (inactive)"
>>> valueobserved("CCc1ccc(OCC(=O)NCC(c2ccc(Cl)cc2)N2CCCCC2)cc1 (stereo not given)")
"14.2% (inactive)"
>>> valueobserved("Cc1cc(C)c2c(=O)[nH]c(SCC(=O)Nc3ccc(Br)cc3)nc2n1")
"-13.3% (inactive)"
>>> valueobserved("O=C(NCc1ccc(F)cc1)c1cc(C2CCCCN2C(=O)C2CCCCC2)on1 (stereo not given)")
"-10.2% (inactive)"
>>> valueobserved("Cc1cc(OC(C)C(=O)Nc2ccc(S(=O)(=O)Nc3onc(C)c3C)cc2)cc(C)c1Cl (stereo not given)")
"12.3% (inactive)"
